Measured values drawn from PubChem BioAssay AID485346 for this set.

# inhibition values compiled below
Biological target: Protein Mdm4 (Homo sapiens) + E3 ubiquitin-protein ligase Mdm2 (Homo sapiens) (UniProt O15151+Q00987)
Sequence (O15151 whole entry, looked up): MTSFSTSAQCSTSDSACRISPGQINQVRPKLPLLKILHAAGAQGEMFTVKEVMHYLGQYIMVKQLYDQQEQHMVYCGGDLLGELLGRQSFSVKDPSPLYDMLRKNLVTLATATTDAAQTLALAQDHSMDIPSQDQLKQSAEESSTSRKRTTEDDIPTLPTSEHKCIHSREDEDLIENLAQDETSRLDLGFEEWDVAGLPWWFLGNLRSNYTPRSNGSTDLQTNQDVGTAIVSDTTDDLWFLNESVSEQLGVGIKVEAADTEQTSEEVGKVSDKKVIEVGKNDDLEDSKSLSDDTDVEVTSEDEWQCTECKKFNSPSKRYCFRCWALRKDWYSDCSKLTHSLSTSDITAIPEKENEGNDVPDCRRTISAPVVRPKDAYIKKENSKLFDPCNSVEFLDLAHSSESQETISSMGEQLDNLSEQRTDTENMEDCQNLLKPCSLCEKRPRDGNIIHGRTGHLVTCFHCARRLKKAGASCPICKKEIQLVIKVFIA
Sequence (Q00987 whole entry, looked up): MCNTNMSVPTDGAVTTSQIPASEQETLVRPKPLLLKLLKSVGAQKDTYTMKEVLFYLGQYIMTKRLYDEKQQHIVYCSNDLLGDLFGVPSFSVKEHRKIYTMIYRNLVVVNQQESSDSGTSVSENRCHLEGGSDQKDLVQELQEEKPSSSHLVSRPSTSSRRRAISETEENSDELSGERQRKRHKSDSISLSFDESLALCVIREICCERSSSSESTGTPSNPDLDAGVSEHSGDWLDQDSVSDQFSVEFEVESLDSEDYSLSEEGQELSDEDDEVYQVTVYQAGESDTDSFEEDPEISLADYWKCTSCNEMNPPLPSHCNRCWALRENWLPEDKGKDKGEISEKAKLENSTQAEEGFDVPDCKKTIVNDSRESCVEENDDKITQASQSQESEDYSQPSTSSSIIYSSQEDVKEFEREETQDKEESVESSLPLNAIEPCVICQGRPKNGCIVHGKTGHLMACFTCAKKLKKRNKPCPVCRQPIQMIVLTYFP
Assay: inhibitors of human Mdm2-MdmX association, primary screen, cell-based, luminescence, split luciferase, SaOS-2, uHTS (AID 485346)
Details: SaOS-2 split-luciferase Mdm2/MdmX complementation, at 8 µM, active compounds read high
Screen size: about 330,000 compounds; about 10,000 (3%) were called active. Many of the other results were omitted from the sample, so actives are more common in it than they were.

mol-smiles	inhibition [%]
CC(=O)c1c(C)[nH]c(C(=O)OCC(=O)Nc2c(C)n(C)n(-c3ccccc3)c2=O)c1C	11.3
CCN(CC)c1ccc(NC(=O)CCc2nnc3ccc(N4CCCCC4)nn23)c(C)c1	15.3
N#CC1(NC(=O)COC(=O)CSc2ccc(F)cc2)CCCCC1	6.22
Cc1noc(C)c1S(=O)(=O)N(C)C[C@H]1Oc2c(NC(=O)Nc3ccc4c(c3)OCO4)cccc2C(=O)N([C@H](C)CO)C[C@@H]1C	23.1
CCOc1ccc(CN2CCN(Cc3c[nH]c4ccccc34)CC2)cc1	20.2

====

Molecular target: Protein Mdm4 (Homo sapiens) + E3 ubiquitin-protein ligase Mdm2 (Homo sapiens) (UniProt O15151+Q00987)
Test: inhibitors of human Mdm2-MdmX association, primary screen, cell-based, luminescence, split luciferase, SaOS-2, uHTS (AID 485346)
Settings: SaOS-2 split-luciferase Mdm2/MdmX complementation, at 8 µM, active compounds read high
The campaign covered roughly 330,000 compounds. About 10,000 (3%) were called active. Only a selection was taken, and actives are over-represented in it overall.
Quick reference for inhibition among some compounds

compound	unit-text	inhibition
CC(=O)Nc1ccc(/C=C/C(=O)c2ccccc2)cc1	%	-7.03
CCc1ccc(N(CC)c2ncnc3nc[nH]c23)cc1	%	63
Cc1ccc(C(=O)O)cc1N1C(=O)CCCC1=O	%	-17.1
Oc1ccc(/C=N/Nc2nc(-c3ccccc3F)nc3ccccc23)c(O)c1	%	69
CN(C)CC(O)COc1ccc(C(C)(C)c2ccc(OCC(O)CN(C)C)cc2)cc1 (stereo not drawn)	%	97.5
COCCCNC(=S)NCCNc1nc2cc(C)c(C)cc2cc1C#N	%	-28.9
CN1CCN(S(=O)(=O)c2ccc(N3CCN(c4ccccc4O)CC3)c([N+](=O)[O-])c2)CC1	%	2.63
O=C1CCCC2=C1C(c1ccccc1)n1c(s/c(=C/c3cccc(F)c3)c1=O)=N2 (stereo not drawn)	%	-4.28
O=C(NCCC1=CCCCC1)c1ccc(-n2cncn2)cc1	%	-91.1
O=c1c2ccccc2nc(N/N=C/c2ccccc2)n1O	%	-0.971
CCCn1c(N)c(C(=O)CSc2nnc3n2CCCCC3)c(=O)[nH]c1=O	%	2.64
C/C(=N\NC(=O)c1ccc(C)cc1)C1C(=O)c2ccccc2C1=O	%	1.09
Cc1ccc(C)c(NC(=O)CN(C)C(=O)c2ccc3ncsc3c2)c1	%	10.9
CC1(C)Cc2c(sc3nc(SCC(=O)NCc4ccccc4)n(-c4ccccc4)c(=O)c23)CS1	%	-3.67
C=CCn1c2ccccc2c2nnc(SCc3[nH]c(=O)[nH]c3C(=O)CCCCC(=O)OCC)nc21	%	26.8
COc1ccc(C2C(C#N)=C(/N=C/N3CCOCC3)OC3=C2C(=O)CC(C)(C)C3)cc1OC (stereo not drawn)	%	-7.65
CCC1CCCCN1CCCNC(=O)Cn1nc(-c2ccccc2)ccc1=O (stereo not drawn)	%	5.14
COc1ccc(CCNc2ncnc3nc[nH]c23)cc1OC	%	18.1
COc1ccc2[nH]c3c(c2c1)CCN1C(=O)C(CC(=O)NCc2cccc(C(F)(F)F)c2)C[C@H](C(=O)N2CCOCC2)[C@@]31C (stereo partly drawn)	%	17.2
Cc1cn(COC/C=C/c2ccccc2)c(=O)[nH]c1=O	%	7.02
COc1cccc2cc(C(=O)N3CCN(C(=O)c4ccccc4)CC3)c(=O)oc12	%	13.1
COc1cccc2cc(C(N)=O)/c(=N\NC(=O)c3ccccc3)oc12	%	56.6
O=C(CSc1nncn1-c1cccnc1)N1CCOCC1	%	-14.1
CC(C)CN(CC(C)C)CC(O)CN(c1ccccc1)S(=O)(=O)c1ccccc1[N+](=O)[O-] (stereo not drawn)	%	31.5
Cc1n[nH]c(=O)nc1N/N=C/c1cccs1	%	-4.56
COc1ccc(CN2C(=O)CC(Cc3ccc(C)cc3)C2=O)cc1OC (stereo not drawn)	%	5.73
CCOC(=O)C1=C(C)N=c2s/c(=C\C(=O)OC)c(=O)n2C1c1ccc(OC)cc1 (stereo not drawn)	%	12.2
CCC1CCCCN1CCCNC(=O)c1cc2c(Cl)nc3ccccc3c2s1 (stereo not drawn)	%	58.7
COc1ccc(-c2nc3n(c(=O)c2C#N)CCS3)c(OC)c1	%	1.98
CCC1CCCCN1CCCNC(=O)C1CCC(Cn2c(=O)[nH]c3ccccc3c2=O)CC1 (stereo not drawn)	%	-28.9
Cc1ccc(/C=N/NC(=O)C2=NNC(c3ccccc3)(c3ccccc3)C2)c(O)c1	%	42.2
COn1c(=O)c(=O)n(OC)c2ccccc21	%	-14.5
Cc1cc(NC(=O)COC(=O)/C=C/c2ccc(C)o2)no1	%	8.11
COc1ccc(OC)c(C2C3=C(N=c4s/c(=C\c5cccc(O)c5)c(=O)n42)c2ccccc2CC3)c1 (stereo not drawn)	%	79.2
O=C(c1ccncc1)N1CCN(S(=O)(=O)c2cccc([N+](=O)[O-])c2)CC1	%	-3.71
O=C(NCc1ccccc1)C1C(=O)N(Cc2ccccc2)C(=O)C1C1(O)CCCC1 (stereo not drawn)	%	13
CCn1nc(C(=O)NNC(=O)C2CSC3(C)CCC(=O)N23)c2ccccc2c1=O (stereo not drawn)	%	25.6
O=C(OC1CCOC1=O)c1ccc(-c2nc3ccccc3s2)s1 (stereo not drawn)	%	-9.1
Cc1cc(C)n(CC(O)COc2ccc(C(C)(C)C)cc2)n1 (stereo not drawn)	%	0.107
O=c1[nH]c(NCCO)nnc1Cc1ccc(Cl)cc1	%	16.8
Brc1ccc(C2=CC(c3ccco3)n3ncnc3N2)cc1 (stereo not drawn)	%	11.6
C=CCSc1ccc(S(=O)(=O)N2CCN(C)CC2)cn1	%	13.1
Cc1cccc(OCC(O)Cn2c(N3CCCCC3)nc3c2c(=O)[nH]c(=O)n3C)c1 (stereo not drawn)	%	-19.9

====

Biological target: Protein Mdm4 (Homo sapiens) + E3 ubiquitin-protein ligase Mdm2 (Homo sapiens) (UniProt O15151+Q00987)
Assay: inhibitors of human Mdm2-MdmX association, primary screen, cell-based, luminescence, split luciferase, SaOS-2, uHTS (AID 485346)
Conditions: SaOS-2 split-luciferase Mdm2/MdmX complementation, at 8 µM, active compounds read high
Hit rate of the full screen: of about 330,000 compounds, about 10,000 (3%) were called active. The list comes from a sample in which actives are over-represented; it also holds close analogues and randomly drawn compounds.
# inhibition annotations

mol-smiles	unit-text	inhibition
Cc1ccc(-c2cn3cc(C)ccc3n2)cc1	%	89.4
Cc1ccc(-c2cn3cc([N+](=O)[O-])ccc3n2)cc1	%	-68.9
O=C(CN1C(=O)CCS(=O)(=O)c2ccccc21)NCc1ccc(F)cc1	%	13.2
CSc1nnc2ccc(-c3ccc(C)cc3)nn12	%	34.9
Cc1ccc2nc(-c3ccc(Br)cc3)cn2c1	%	61.7
O=C(NCCN1CCOCC1)c1cc(Sc2cccc(Cl)c2)nc2ccccc12	%	-2.97

====

Target: Protein Mdm4 (Homo sapiens) + E3 ubiquitin-protein ligase Mdm2 (Homo sapiens) (UniProt O15151+Q00987)
Assay: inhibitors of human Mdm2-MdmX association, primary screen, cell-based, luminescence, split luciferase, SaOS-2, uHTS (AID 485346)
Conditions: SaOS-2 split-luciferase Mdm2/MdmX complementation, at 8 µM
Hit rate of the full screen: of about 330,000 compounds, about 10,000 (3%) were called active.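 Rule for the calls: active = inhibition of at least 50% at 8 µM in the primary screen; inactive = the rest.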 For the sample, actives were picked, then their nearest neighbours and some compounds at random.
Possible outcomes: True for active, False for inactive

compound	assigned-class
Cc1ccc(S(=O)(=O)N2CCCCC2)cc1NC(=O)CCNC(=O)c1ccccc1	False
Cc1cc(C)n2nc(C(=O)OCC(=O)N(CCC#N)c3ccc(F)cc3)nc2n1	False
O=C(Nc1ccc2c(c1)OCCO2)C1CCCN(c2ncccn2)C1 (stereo not drawn)	False
COC(=O)c1c(-c2ccc(C)cc2)csc1N	False
CCOC(=O)c1c(-c2ccc(C)cc2)csc1/N=C(\C)C1=C(O)c2ccccc2C1=O	True
CC(=NCc1ccco1)C1=C(O)c2ccccc2C1=O	False
Cc1cccc(N2O[C@H]3C=CC2CCCC3)n1	False
O=C(NCc1cccnc1)c1ccccc1NC(=O)c1c(F)cccc1F	False
O=C(Nc1ccc2c(c1)OCCO2)C1CCCC1	True
COC(=O)c1ccc(COC(=O)c2cnc(Cl)c(Cl)c2)cc1	False
Cc1ccc(S(=O)(=O)N2CCCCC2)cc1C(=O)N1CCN(CCO)CC1	False
COc1ccc(NC(=O)c2cccc3c2C(=O)N(CC2CCCO2)C3)cc1OC (stereo not drawn)	False
CC1CCN(C(=O)c2ccc3c(c2)NC(=O)CN3)CC1	False
COc1ccccc1N(C)S(=O)(=O)c1ccc(Cl)c(C(=O)N2CCC(C(N)=O)CC2)c1	False
O=C(Nc1ccc2c(c1)OCO2)C1CC1(Cl)Cl (stereo not drawn)	False
NC(=O)C1CCN(C(=O)c2ccc(-c3ccccc3)cc2)CC1	False
Cc1ccc(/C=C/C(=O)O)cc1S(=O)(=O)N1CCC(Cc2ccccc2)CC1	False
COc1cccc(/C=N/Nc2ccc(Cl)nn2)c1	False
CCOc1ccc(C(C)=O)cc1COC(=O)c1cnc(Cl)c(Cl)c1	True
Nc1nc(NC(=O)/C=C/c2ccc(F)cc2)nn1-c1ccccc1	False
Cc1ccc(-n2c(SCC(=O)NCc3ccc4c(c3)OCO4)nnc2-c2cccnc2)c(C)c1	False
O=C1Nc2cc(C(=O)N3CCC(N4CCCCC4)CC3)ccc2S/C1=C\c1ccccc1	True
O=C(CN1CCCSc2ccccc21)N1CCN(S(=O)(=O)c2ccccc2)CC1	False
